System: HOP-62 multicell spheroids with HUVEC/MSC, viability
Protocol details: Anticancer human tumor HOP-62 cell line growth inhibition [KRAS2];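 note: viability read after a week of compound exposure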
Setup conditions: second compound 0.1 µM; first compound 0.0001 µM; active compounds read low
So basically: is viability, T/C under 80%? Then Criterion met. Not under? Then Criterion not met.

Some solved cases for reference:
>>> group_label("CC(=O)Nc1cccc(-n2c(=O)n(C3CC3)c(=O)c3c(Nc4ccc(I)cc4F)n(C)c(=O)c(C)c32)c1 + C=CC(=O)N1CCN(c2nc(OCC3CCCN3C)nc3c2CCN(c2cccc4cccc(C)c24)C3)CC1CC#N")
"Criterion met"
>>> group_label("CC(=O)Nc1cccc(-n2c(=O)n(C3CC3)c(=O)c3c(Nc4ccc(I)cc4F)n(C)c(=O)c(C)c32)c1 + CC1OCC2(CCN(c3cnc(Sc4ccnc(N)c4Cl)c(N)n3)CC2)C1N")
"Criterion not met"
>>> group_label("CC(=O)Nc1cccc(-n2c(=O)n(C3CC3)c(=O)c3c(Nc4ccc(I)cc4F)n(C)c(=O)c(C)c32)c1 + CNCc1ccccc1-c1csc(C(C)Nc2nc(C)nc3cc(OC)c(OC)cc23)c1")
"Criterion not met"

viability, T/C under 80%? Item: CC(=O)Nc1cccc(-n2c(=O)n(C3CC3)c(=O)c3c(Nc4ccc(I)cc4F)n(C)c(=O)c(C)c32)c1 + COc1cc2nc(C)nc(NC(C)c3cc(N)cc(C(F)(F)F)c3)c2cc1OC1CCOC1
Criterion not met
